Target protein (sequence): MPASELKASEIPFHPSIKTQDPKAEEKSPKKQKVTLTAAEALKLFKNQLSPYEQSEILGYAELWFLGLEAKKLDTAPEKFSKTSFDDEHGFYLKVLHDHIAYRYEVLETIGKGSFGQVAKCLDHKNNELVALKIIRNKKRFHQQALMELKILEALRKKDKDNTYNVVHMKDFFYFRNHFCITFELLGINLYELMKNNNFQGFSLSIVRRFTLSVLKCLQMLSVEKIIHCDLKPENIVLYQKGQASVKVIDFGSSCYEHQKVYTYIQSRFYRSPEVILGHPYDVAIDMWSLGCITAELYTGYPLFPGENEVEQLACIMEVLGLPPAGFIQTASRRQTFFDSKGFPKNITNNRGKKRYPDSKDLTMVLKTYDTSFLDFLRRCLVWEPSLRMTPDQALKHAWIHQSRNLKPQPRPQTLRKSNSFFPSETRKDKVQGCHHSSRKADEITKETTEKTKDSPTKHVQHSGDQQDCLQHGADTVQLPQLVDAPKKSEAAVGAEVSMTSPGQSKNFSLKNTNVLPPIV
endpoint: pIC50
# log scale: pIC50 equals minus log10 of the concentration in mol/L

[ask] Which pIC50 is listed for CN1C(=O)[C@@H](N2CCc3c(nn(Cc4ccccc4)c3Br)C2=O)COc2ccccc21 ?
[reply] 6.00

---

target: Protein kinase C eta type (Homo sapiens, UniProt P24723)
endpoint: pIC50
# log scale: pIC50 equals minus log10 of the concentration in mol/L

[ask] Which pIC50 is listed for CN1C(=O)[C@@H](N2CCc3c(nn(Cc4ccccc4)c3Br)C2=O)COc2ccccc21 ?
[reply] 6.00

---

biological target: Inhibitor of nuclear factor kappa-B kinase subunit beta (Homo sapiens, UniProt O14920); experiment: IKKbeta(IKBBLHY1) Takeda global kinase panel
Sequence (O14920 whole entry): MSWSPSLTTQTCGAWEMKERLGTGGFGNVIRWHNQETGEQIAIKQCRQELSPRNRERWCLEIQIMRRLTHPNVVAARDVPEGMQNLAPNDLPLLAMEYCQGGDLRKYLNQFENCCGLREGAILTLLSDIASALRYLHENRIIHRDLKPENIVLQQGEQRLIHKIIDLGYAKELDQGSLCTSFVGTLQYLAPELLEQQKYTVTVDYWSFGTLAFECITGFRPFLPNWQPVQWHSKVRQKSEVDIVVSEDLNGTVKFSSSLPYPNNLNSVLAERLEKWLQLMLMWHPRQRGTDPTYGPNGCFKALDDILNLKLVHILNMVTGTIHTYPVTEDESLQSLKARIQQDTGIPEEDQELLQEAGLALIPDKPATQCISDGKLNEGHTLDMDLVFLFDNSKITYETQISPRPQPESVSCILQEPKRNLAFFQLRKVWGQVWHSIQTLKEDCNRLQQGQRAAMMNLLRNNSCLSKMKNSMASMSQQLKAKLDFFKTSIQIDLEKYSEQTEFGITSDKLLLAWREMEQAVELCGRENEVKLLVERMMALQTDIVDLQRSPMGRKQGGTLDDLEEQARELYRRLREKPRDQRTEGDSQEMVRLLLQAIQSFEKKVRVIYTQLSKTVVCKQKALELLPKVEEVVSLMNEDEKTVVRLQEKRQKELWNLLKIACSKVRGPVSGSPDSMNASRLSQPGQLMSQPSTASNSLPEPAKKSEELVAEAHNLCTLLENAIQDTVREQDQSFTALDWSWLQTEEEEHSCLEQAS
endpoint: IC50 (nM)
Answer in nM, number only, no unit symbol.

[ask] Which IC50 is listed for CN1C(=O)[C@@H](N2CCc3c(nn(Cc4ccccc4)c3Br)C2=O)COc2ccccc21 ?
[reply] 1000

---

biological target: Mitogen-activated protein kinase 11 (Homo sapiens, UniProt Q15759); assay: p38beta(MP11LGI1) Takeda global kinase panel
Sequence (Q15759 whole entry): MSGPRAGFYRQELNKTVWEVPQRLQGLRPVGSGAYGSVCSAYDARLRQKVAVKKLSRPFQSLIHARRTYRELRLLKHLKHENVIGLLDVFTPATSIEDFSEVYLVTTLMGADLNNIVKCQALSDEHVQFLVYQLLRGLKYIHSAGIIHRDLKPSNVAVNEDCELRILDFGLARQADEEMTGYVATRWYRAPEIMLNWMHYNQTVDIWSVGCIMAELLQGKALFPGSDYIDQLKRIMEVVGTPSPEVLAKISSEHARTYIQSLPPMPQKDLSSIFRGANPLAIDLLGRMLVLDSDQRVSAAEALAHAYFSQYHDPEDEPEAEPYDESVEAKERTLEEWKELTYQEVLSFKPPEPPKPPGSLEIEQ
endpoint: pIC50
# log scale: pIC50 equals minus log10 of the concentration in mol/L

[ask] Which pIC50 is listed for CN1C(=O)[C@@H](N2CCc3c(nn(Cc4ccccc4)c3Br)C2=O)COc2ccccc21 [TP-030-2] ?
[reply] 6.00

---

biological target: Casein kinase II subunit alpha (Homo sapiens, UniProt P68400); experiment: CK2alpha1(C2A1LGF1) Takeda global kinase panel
endpoint: IC50 (µM)
Answer in µM, number only, no unit symbol.

[ask] Which IC50 is listed for CN1C(=O)[C@@H](N2CCc3c(nn(Cc4ccccc4)c3Br)C2=O)COc2ccccc21 ?
[reply] 1

---

target: UniProt P29597
Sequence (P29597 whole entry): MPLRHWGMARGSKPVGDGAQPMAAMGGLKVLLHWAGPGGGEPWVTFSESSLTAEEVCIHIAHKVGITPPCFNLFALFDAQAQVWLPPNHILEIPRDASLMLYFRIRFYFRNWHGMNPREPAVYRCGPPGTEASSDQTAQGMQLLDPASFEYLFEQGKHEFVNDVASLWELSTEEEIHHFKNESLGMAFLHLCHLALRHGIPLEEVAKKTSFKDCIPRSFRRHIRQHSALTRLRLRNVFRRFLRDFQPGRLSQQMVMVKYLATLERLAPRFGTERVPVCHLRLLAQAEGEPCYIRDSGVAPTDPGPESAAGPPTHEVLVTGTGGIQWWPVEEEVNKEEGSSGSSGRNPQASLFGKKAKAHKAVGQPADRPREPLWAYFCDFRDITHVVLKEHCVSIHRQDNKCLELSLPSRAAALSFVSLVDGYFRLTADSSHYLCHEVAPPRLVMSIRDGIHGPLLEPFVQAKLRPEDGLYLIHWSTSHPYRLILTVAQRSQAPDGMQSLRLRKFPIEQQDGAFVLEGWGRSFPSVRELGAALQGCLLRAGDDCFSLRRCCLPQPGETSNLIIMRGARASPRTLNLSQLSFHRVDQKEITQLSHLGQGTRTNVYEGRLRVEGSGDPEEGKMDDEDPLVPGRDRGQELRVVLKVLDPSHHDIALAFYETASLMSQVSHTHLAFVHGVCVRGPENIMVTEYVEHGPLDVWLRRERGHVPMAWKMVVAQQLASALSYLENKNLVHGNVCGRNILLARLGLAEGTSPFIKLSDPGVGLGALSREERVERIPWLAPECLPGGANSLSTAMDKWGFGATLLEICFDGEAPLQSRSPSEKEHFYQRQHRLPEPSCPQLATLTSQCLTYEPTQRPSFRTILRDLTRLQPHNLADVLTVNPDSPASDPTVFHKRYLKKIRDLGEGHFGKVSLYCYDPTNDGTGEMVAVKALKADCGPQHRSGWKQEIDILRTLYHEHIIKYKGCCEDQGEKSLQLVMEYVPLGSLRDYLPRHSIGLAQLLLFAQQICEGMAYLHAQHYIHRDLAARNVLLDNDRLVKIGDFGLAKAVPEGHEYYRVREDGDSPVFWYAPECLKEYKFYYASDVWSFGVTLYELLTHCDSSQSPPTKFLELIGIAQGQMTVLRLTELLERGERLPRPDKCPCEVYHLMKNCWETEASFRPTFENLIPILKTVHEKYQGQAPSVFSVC
endpoint: IC50

[ask] Provide value of IC50 for this record tested with UniProt P29597: CN1C(=O)[C@@H](N2CCc3c(nn(Cc4ccccc4)c3Br)C2=O)COc2ccccc21 [TP-030-2]
[reply] 1000 nM

---

molecular target: SRSF protein kinase 3 (Homo sapiens)
Sequence (Q9UPE1 whole entry): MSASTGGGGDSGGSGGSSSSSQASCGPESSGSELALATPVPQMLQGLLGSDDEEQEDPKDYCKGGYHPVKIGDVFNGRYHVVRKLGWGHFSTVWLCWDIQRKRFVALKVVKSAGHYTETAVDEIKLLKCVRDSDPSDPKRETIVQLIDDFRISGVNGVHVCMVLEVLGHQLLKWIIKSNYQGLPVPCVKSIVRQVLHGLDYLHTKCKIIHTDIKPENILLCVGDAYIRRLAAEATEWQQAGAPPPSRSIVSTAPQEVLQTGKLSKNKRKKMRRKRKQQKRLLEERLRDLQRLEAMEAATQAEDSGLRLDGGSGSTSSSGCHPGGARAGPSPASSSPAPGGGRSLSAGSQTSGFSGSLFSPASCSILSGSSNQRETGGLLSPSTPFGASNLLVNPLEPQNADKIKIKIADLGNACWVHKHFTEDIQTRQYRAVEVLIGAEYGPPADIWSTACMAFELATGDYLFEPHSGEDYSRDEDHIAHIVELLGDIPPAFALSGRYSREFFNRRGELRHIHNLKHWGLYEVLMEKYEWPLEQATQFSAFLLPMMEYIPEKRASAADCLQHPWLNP
endpoint: IC50
Report field: quantity (unit follows the number).

[ask] Provide value of IC50 for this record tested with SRSF protein kinase 3 (Homo sapiens): CN1C(=O)[C@@H](N2CCc3c(nn(Cc4ccccc4)c3Br)C2=O)COc2ccccc21
[reply] 1000 nM

---

molecular target: Bromodomain-containing protein 4 (Homo sapiens, UniProt O60885); test: BRD4(BRD4LGRC) Takeda global kinase panel
endpoint: IC50 (nM)
Answer in nM, number only, no unit symbol.

[ask] Which IC50 is listed for CN1C(=O)[C@@H](N2CCc3c(nn(Cc4ccccc4)c3Br)C2=O)COc2ccccc21 ?
[reply] 1000

---

target: UniProt P06213
endpoint: pIC50
# log scale: pIC50 equals minus log10 of the concentration in mol/L

[ask] Provide value of pIC50 for this record tested with UniProt P06213: CN1C(=O)[C@@H](N2CCc3c(nn(Cc4ccccc4)c3Br)C2=O)COc2ccccc21 [TP-030-2]
[reply] 6.00

---

biological target: UniProt P30530; assay: Axl(AXL1LGY1) Takeda global kinase panel
endpoint: IC50 (µM)
Answer in µM, number only, no unit symbol.

[ask] Which IC50 is listed for CN1C(=O)[C@@H](N2CCc3c(nn(Cc4ccccc4)c3Br)C2=O)COc2ccccc21 [TP-030-2] ?
[reply] 1

---

target: Serine/threonine-protein kinase Chk1 (Homo sapiens); experiment: CHK1(CHE1CGP1) Takeda global kinase panel
endpoint: IC50 (nM)
Answer in nM, number only, no unit symbol.

[ask] Provide value of IC50 for this record tested with Serine/threonine-protein kinase Chk1 (Homo sapiens): CN1C(=O)[C@@H](N2CCc3c(nn(Cc4ccccc4)c3Br)C2=O)COc2ccccc21
[reply] 1000

---

target: UniProt:P42685
Sequence (P42685 whole entry): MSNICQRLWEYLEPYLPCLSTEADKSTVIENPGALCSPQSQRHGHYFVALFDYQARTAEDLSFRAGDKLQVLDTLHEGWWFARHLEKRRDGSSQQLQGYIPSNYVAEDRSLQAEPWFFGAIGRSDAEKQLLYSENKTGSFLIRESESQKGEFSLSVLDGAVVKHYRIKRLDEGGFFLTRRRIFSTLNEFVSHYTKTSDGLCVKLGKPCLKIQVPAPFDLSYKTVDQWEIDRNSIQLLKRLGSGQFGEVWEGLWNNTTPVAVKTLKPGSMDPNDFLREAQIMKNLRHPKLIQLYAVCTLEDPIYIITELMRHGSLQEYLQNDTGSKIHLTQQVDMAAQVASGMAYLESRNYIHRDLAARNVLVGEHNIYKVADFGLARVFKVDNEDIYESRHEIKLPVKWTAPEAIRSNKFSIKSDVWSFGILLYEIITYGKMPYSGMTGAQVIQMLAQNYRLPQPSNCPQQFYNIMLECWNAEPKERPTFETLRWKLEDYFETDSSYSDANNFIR
endpoint: IC50 (nM)
Answer in nM, number only, no unit symbol.

[ask] Provide value of IC50 for this record tested with UniProt:P42685: CN1C(=O)[C@@H](N2CCc3c(nn(Cc4ccccc4)c3Br)C2=O)COc2ccccc21
[reply] 1000

---

molecular target: UniProt Q15418
Sequence (Q15418 whole entry): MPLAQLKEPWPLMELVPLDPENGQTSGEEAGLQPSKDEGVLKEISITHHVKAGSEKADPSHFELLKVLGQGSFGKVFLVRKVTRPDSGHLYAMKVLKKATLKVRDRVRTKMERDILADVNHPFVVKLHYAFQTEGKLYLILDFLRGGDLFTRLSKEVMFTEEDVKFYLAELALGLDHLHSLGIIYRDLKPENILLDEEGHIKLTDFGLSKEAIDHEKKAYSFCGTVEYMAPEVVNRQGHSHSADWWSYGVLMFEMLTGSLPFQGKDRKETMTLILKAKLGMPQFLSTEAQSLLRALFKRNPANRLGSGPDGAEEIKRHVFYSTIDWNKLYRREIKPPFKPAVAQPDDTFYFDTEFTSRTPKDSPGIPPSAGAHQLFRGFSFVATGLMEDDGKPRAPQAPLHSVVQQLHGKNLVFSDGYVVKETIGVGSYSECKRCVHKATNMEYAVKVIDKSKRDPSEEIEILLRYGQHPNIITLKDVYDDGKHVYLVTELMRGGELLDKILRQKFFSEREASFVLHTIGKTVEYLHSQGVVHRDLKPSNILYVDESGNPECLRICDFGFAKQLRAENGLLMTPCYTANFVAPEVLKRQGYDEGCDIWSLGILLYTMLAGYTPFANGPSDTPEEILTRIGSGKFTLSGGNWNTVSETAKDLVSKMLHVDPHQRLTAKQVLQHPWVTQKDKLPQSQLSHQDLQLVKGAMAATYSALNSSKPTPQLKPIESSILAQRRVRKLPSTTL
endpoint: IC50

[ask] Which IC50 is listed for CN1C(=O)[C@@H](N2CCc3c(nn(Cc4ccccc4)c3Br)C2=O)COc2ccccc21 [TP-030-2] ?
[reply] 1000 nM

---

Biological target: Alpha-2A adrenergic receptor (Homo sapiens, UniProt P08913)
Sequence (P08913 whole entry): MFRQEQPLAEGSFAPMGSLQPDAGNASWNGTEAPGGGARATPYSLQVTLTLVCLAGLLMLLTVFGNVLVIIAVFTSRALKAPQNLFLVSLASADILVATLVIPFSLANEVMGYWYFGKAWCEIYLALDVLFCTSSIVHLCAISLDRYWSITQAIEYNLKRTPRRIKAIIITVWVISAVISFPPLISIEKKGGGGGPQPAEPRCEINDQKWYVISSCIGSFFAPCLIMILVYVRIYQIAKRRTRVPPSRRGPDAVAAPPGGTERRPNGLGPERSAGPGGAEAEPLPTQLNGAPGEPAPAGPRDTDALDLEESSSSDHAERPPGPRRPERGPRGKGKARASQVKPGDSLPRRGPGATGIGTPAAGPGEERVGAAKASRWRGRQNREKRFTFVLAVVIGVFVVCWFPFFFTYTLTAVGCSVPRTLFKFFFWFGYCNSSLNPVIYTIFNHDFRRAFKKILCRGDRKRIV
endpoint: Ki (µM)
Answer in µM, number only, no unit symbol.

[ask] Which Ki is listed for CN1C(=O)[C@@H](N2CCc3c(nn(Cc4ccccc4)c3Br)C2=O)COc2ccccc21 [TP-030-2] ?
[reply] 2.36

---

biological target: Tyrosine-protein kinase Blk (Homo sapiens, UniProt P51451)
endpoint: pIC50
# log scale: pIC50 equals minus log10 of the concentration in mol/L

[ask] Which pIC50 is listed for CN1C(=O)[C@@H](N2CCc3c(nn(Cc4ccccc4)c3Br)C2=O)COc2ccccc21 ?
[reply] 6.00

---

target: Serine/threonine-protein kinase D2 (Homo sapiens, UniProt Q9BZL6); experiment: PKD2(PRD2LHY1) Takeda global kinase panel
Sequence (Q9BZL6 whole entry): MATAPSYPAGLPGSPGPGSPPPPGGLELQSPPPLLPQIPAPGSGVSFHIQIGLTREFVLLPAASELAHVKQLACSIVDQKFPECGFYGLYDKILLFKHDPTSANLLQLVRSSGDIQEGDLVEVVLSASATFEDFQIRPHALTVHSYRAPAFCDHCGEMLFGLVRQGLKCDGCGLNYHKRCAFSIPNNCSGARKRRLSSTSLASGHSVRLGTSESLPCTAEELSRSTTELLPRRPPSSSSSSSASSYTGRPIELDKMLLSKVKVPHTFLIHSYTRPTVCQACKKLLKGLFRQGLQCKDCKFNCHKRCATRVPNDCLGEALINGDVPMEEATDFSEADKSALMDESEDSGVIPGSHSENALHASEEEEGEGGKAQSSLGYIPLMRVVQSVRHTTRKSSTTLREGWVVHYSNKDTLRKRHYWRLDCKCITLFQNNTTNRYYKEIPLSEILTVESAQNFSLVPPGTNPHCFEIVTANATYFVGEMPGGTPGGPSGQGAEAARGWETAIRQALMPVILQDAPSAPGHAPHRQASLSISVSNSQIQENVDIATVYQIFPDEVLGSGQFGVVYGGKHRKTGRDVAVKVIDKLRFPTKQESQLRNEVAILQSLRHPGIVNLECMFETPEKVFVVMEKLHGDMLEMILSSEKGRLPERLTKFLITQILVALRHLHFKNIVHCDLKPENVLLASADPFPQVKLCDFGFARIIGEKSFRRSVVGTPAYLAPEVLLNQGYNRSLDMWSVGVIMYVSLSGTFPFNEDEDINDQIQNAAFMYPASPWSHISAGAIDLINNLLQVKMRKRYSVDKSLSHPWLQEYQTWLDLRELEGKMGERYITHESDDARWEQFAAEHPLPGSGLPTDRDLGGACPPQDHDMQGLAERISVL
endpoint: IC50 (nM)
Answer in nM, number only, no unit symbol.

[ask] Which IC50 is listed for CN1C(=O)[C@@H](N2CCc3c(nn(Cc4ccccc4)c3Br)C2=O)COc2ccccc21 [TP-030-2] ?
[reply] 1000

---

molecular target: hERG (KCNH2) (Homo sapiens); assay: Inhibition of Potassium Channel hERG at 10 µM in the Eurofins-Panlabs radioligand binding assay (Eurofins_assay_265900); set-up: ligand concentration 1.5 nM, non-specific ligand with concentration Astemizole, incubation time 60 min, incubation temperature 25 °C; conditions: HEK-293 cells expressing human recombinant hERG, probe [3H] Astemizole, compound concentration 10 uM
endpoint: inhibition at 60 min, 10 µM

[ask] Provide value of inhibition at 60 min, 10 µM for this record tested with hERG (KCNH2) (Homo sapiens): CN1C(=O)[C@@H](N2CCc3c(nn(Cc4ccccc4)c3Br)C2=O)COc2ccccc21
[reply] 7% (not active)

---

target: Phosphatidylinositol 4,5-bisphosphate 3-kinase catalytic subunit delta isoform (Homo sapiens, UniProt O00329); experiment: PI3KCD(PI3DCGRK) Takeda global kinase panel
endpoint: pIC50
# log scale: pIC50 equals minus log10 of the concentration in mol/L

[ask] Which pIC50 is listed for CN1C(=O)[C@@H](N2CCc3c(nn(Cc4ccccc4)c3Br)C2=O)COc2ccccc21 [TP-030-2] ?
[reply] 6.00

---

target: Macrophage colony-stimulating factor 1 receptor (Homo sapiens)
endpoint: pIC50
# log scale: pIC50 equals minus log10 of the concentration in mol/L

[ask] Which pIC50 is listed for CN1C(=O)[C@@H](N2CCc3c(nn(Cc4ccccc4)c3Br)C2=O)COc2ccccc21 [TP-030-2] ?
[reply] 6.00

---

Biological target: Serine/threonine-protein kinase Nek2 (Homo sapiens)
Sequence (P51955 whole entry): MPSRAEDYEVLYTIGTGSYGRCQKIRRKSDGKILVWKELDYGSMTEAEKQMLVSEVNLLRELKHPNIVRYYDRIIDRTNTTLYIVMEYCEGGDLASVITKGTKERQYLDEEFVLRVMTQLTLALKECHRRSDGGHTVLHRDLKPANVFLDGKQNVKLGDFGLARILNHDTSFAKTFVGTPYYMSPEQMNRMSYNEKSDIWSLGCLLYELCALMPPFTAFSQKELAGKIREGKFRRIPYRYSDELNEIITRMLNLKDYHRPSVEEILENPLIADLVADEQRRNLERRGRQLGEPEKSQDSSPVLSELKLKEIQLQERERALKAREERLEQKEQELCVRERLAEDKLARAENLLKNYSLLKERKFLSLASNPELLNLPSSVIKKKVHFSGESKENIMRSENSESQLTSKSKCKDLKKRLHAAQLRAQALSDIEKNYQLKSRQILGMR
endpoint: pIC50
# log scale: pIC50 equals minus log10 of the concentration in mol/L

[ask] Which pIC50 is listed for CN1C(=O)[C@@H](N2CCc3c(nn(Cc4ccccc4)c3Br)C2=O)COc2ccccc21 ?
[reply] 6.00
